Kindly state viability, T/C for each of the entries shown.
Tested on: 855422-203-R-J1-PDC complex spheroid growth;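 further: spheroids exposed to agents for seven days before readout; percent of DMSO vehicle control luminescence viability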
Test: Anticancer human tumor 855422-203-R-J1-PDC patient-derived bladder carcinoma cell line growth inhibition [AhR]
Details: second compound 1 µM; first compound 0.00316 µM; stronger effect = lower value
A number alone suffices; assume %.

Form field viability, T/C, entry Nc1ncn(C2CC(O)C(CO)O2)c(=O)n1 (stereo not drawn) + Cc1ccccc1N=Nc1ccc(NC(=O)c2ccnn2C)c(C)c1 : 106

Form field viability, T/C, entry CC[C@@]1(O)C(=O)OCc2c1cc1n(c2=O)Cc2cc3c(CN(C)C)c(O)ccc3nc2-1 + Cc1ccccc1N=Nc1ccc(NC(=O)c2ccnn2C)c(C)c1 : 95.2

Form field viability, T/C, entry CC[C@@]1(O)C(=O)OCc2c1cc1n(c2=O)Cc2cc3c(CN(C)C)c(O)ccc3nc2-1 + CC(CO)NC(=O)c1cc(-c2ccc(Cl)cc2)nn(-c2cnn(C)c2)c1=O : 105
